protocol-details: RP, Waters Symmetry C18, 100 × 2.1 mm; A: water + 0.1% formic acid, pH 3; B: acetonitrile + 0.1% formic acid, pH 3; gradient (min/%B) 0/5 24/95 29/95 29.1/5
test-settings: stereoisomer not certain
parameter: LC retention time (min)
Numeric answer only, unit min assumed.

The recorded LC retention time for CC1OC(OC2C(Oc3cc(O)c4c(c3)OC(c3ccc(O)cc3)CC4=O)OC(CO)C(O)C2O)C(O)C(O)C1O (stereo not given) is 10.5

The recorded LC retention time for CN1CCc2cc3c(cc2C1C1OC(=O)c2c1ccc1c2OCO1)OCO3 (stereo not given) is 8.51

The recorded LC retention time for Cc1nccc2c1[nH]c1ccccc12 is 7.81

The recorded LC retention time for Oc1ccc(CC2NCCc3cc(O)c(O)cc32)cc1O (stereo not given) [Tetrahydropapaveroline] is 1.14

The recorded LC retention time for CN1Cc2c(ccc3c2OCO3)C2C(O)Cc3cc4c(cc3C21)OCO4 (stereo not given) is 9.5
